Run description: A CellTox Green Cytotoxicity Assay to monitor cytotoxicity in HEK293 cells - 40 hour (AID 1224871); also: nearly all actives have a fitted effect of over 45% in size
Applied conditions: CellTox Green fluorescence; series mostly up to 76.8 µM
Records with an inconclusive call do not appear. The source made the active and inactive calls. Calls follow the shape of the dose curve; as a rule, active = well fitted activation curve with a large enough effect in the repeat runs; inconclusive = weak or mixed curves; inactive = flat fitted curve, though single readings scatter.
Pick one and only one: 1 (active), -1 (inactive)

Some solved entries appear below for comparison.
*Q* # fetch the recorded call for CC(=O)CC(C)=O here
*A* -1

*Q* # fetch the recorded call for O=C(O)c1cccc(C(=O)O)c1 here
*A* -1

*Q* # fetch the recorded call for CC(C)C(=O)c1c(C(C)C)nn2ccccc12 here
*A* -1

*Q* # fetch the recorded call for COc1nc(C)nc(Cl)c1NC1=NCCN1 here
*A* -1

*Q* # fetch the recorded call for CCCN[C@H]1CCc2nc(N)sc2C1 here
*A* -1

*Q* # fetch the recorded call for c1ccc2cc3c(ccc4ccccc43)cc2c1 here
*A* -1

*Q* # fetch the recorded call for Nc1cc(S(=O)(=O)O)cc2cc(S(=O)(=O)O)cc(O)c12 here
*A* -1

*Q* # fetch the recorded call for C=CC(=O)OCCCCCCOC(=O)C=C here
*A* 1

*Q* # fetch the recorded call for CCc1cc(C(C)(C)C)c(O)c(C(C)(C)C)c1 here
*A* 1

*Q* # fetch the recorded call for CCN(CC)C(=O)Nc1ccc(OCC(O)CNC(C)(C)C)c(C(C)=O)c1 (stereo not drawn) here
*A* -1

New cases:
*Q* # fetch the recorded call for Nc1nc2ccccc2[nH]1 here
*A* -1

*Q* # fetch the recorded call for O=C1Nc2ccccc2C1(c1ccc(O)cc1)c1ccc(O)cc1 here
*A* -1

*Q* # fetch the recorded call for CCn1cc(C(=O)O)c(=O)c2cc(F)c(N3CCNC(C)C3)c(F)c21 (stereo not drawn) here
*A* -1

###

Run description: qHTS assay to identify small molecule agonists of the estrogen receptor beta (ER-beta) signaling pathway - cell viability counter screen (AID 1259380); also: nearly all actives have a fitted effect of over 30% in size
Applied conditions: ER-beta-bla HEK293T viability, CellTiter-Glo luminescence, 16 h; series mostly up to 92.4 µM
Inconclusive results are not listed. Calls of active or inactive are those of the source. Calls come from the whole dose curve; as a rule, active = well fitted cell-killing curve with a large enough effect in the repeat runs; inconclusive = weak or mixed curves, or effect the other way; inactive = flat fitted curve, though single readings scatter.
Pick one and only one: t (active), f (inactive)

Some solved entries appear below for comparison.
*Q* # fetch the recorded call for CC1COc2c(N3CCN(C)CC3)c(F)cc3c(=O)c(C(=O)O)cn1c23 (stereo unspecified) here
*A* f

*Q* # fetch the recorded call for CO[Si](OC)(OC)c1ccccc1 here
*A* f

*Q* # fetch the recorded call for COc1ccc(CCN(C)CCCC(C#N)(c2ccc(OC)c(OC)c2)C(C)C)cc1OC (stereo unspecified) here
*A* f

*Q* # fetch the recorded call for COc1ccc(Cc2cnc(N)nc2N)cc1OC here
*A* f

*Q* # fetch the recorded call for CC(C)CCOCc1ccccc1 here
*A* f

New cases:
*Q* # fetch the recorded call for CCN1CCCC1CNC(=O)c1cc(S(=O)(=O)CC)c(N)cc1OC (stereo unspecified) here
*A* f

*Q* # fetch the recorded call for CCn1cc(C(=O)O)c(=O)c2cc(F)c(N3CCNC(C)C3)c(F)c21 (stereo unspecified) here
*A* f

*Q* # fetch the recorded call for CCCCCC(=O)O[C@]1(C(C)=O)CC[C@H]2[C@@H]3CCC4=CC(=O)CC[C@]4(C)[C@H]3CC[C@@]21C here
*A* f

*Q* # fetch the recorded call for CCCOC(=O)c1cc(O)c(O)c(O)c1 here
*A* f

*Q* # fetch the recorded call for CC(=O)O[C@]1(C(C)=O)CC[C@H]2[C@@H]3C[C@H](C)C4=CC(=O)CC[C@]4(C)[C@H]3CC[C@@]21C here
*A* f

###

Target desc: Androgen receptor (Homo sapiens)
Run description: qHTS assay to identify small molecule antagonists of the androgen receptor (AR) signaling pathway using the MDA cell line in the presence of 0.5 nM R1881 (AID 1259243); also: nearly all actives have a fitted effect of over 50% in size; also: potency is read from the fitted curve at half-maximal effect
Applied conditions: MDA-kb2 MMTV-luciferase, R1881 0.5 nM, 16 h; series mostly up to 92.4 µM
Records with an inconclusive call do not appear. Calls of active or inactive are those of the source. The call rests on the fitted dose curve; in most records, active means well fitted inhibition curve with a large enough effect in the repeat runs; inconclusive means weak or mixed curves; inactive means no such curve, though single readings can be large or run the other way.
Assay readout: Potency

Reference set, count: 5
*Q* Fill in the blank: the reported Potency of O=Cc1ccc(Cl)cc1 is ____.
*A* inactive

*Q* Fill in the blank: the reported Potency of COC(=O)c1cccc(C(=O)OC)c1 is ____.
*A* inactive

*Q* Fill in the blank: the reported Potency of CN1C(=O)c2ccc([N+](=O)[O-])cc2C1=O is ____.
*A* inactive

*Q* Fill in the blank: the reported Potency of COc1cc(C(=S)N2CCOCC2)ccc1O is ____.
*A* inactive

*Q* Fill in the blank: the reported Potency of CCc1ccc(C(c2ccc(CC)cc2)C(Cl)Cl)cc1 is ____.
*A* 49.3 µM (active)

Your task in this section: give Potency for each listed record.
1. CC(C)(O)CCC(C)(C)O
2. O=C(O)Cn1cnnn1
3. OCC(CO)N[C@H]1C[C@](O)(CO)[C@@H](O)[C@H](O)[C@H]1O
4. CCCC(=O)c1ccccc1
5. Cc1c(O)cccc1C(=O)N[C@@H](CSc1ccccc1)[C@H](O)CN1C[C@H]2CCCC[C@H]2C[C@H]1C(=O)NC(C)(C)C
6. Nc1nc(=S)c2[nH]cnc2[nH]1

*A*
1. inactive
2. inactive
3. inactive
4. inactive
5. 18.8 µM (active)
6. inactive

###

Target desc: Nuclear receptor subfamily 1 group I member 2 (Homo sapiens) (UniProt O75469)
Sequence (O75469 whole entry, looked up): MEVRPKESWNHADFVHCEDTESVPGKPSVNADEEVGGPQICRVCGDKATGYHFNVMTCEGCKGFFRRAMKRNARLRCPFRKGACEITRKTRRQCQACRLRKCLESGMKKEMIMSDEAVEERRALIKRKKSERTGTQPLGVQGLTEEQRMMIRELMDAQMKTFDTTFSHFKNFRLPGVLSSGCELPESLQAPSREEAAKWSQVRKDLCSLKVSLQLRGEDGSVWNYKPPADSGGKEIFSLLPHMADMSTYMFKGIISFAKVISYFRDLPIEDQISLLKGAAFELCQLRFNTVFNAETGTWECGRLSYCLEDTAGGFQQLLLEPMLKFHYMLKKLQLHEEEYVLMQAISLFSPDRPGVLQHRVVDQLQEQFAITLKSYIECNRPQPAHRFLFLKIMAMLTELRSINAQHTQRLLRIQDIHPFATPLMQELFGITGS
Run description: Human pregnane X receptor (PXR) small molecule agonists, qHTS assay (AID 1346982); also: nearly all actives have a fitted effect of over 35% in size
Applied conditions: PXR-Luc HepG2, CYP3A4 luciferase reporter, 24 h; series mostly up to 92.4 µM
Records with an inconclusive call do not appear. Activity calls are given as the source filed them. Calls come from the whole dose curve; as a rule, active = well fitted activation curve with a large enough effect in the repeat runs; inconclusive = weak or mixed curves; inactive = no such curve, though single readings can be large or run the other way.
Pick one and only one: active, inactive

Some solved entries appear below for comparison.
*Q* # fetch the recorded call for C#CC(C)(CC)OC(=O)c1ccccc1C(=O)O (centres undefined) here
*A* inactive

*Q* # fetch the recorded call for Cc1occc(=O)c1OC(=O)C(C)C here
*A* inactive

Turning now to a further record.
*Q* # fetch the recorded call for CCC(CO)(CO)COCC(CC)(CO)CO here
*A* inactive

###

Run description: A CellTox Green Cytotoxicity Assay to monitor cytotoxicity in HEK293 cells - 16 hour (AID 1224888); also: nearly all actives have a fitted effect of over 35% in size
Applied conditions: CellTox Green fluorescence; series mostly up to 76.8 µM
Records with an inconclusive call do not appear. Calls of active or inactive are those of the source. Calls come from the whole dose curve; as a rule, active = well fitted activation curve with a large enough effect in the repeat runs; inconclusive = weak or mixed curves; inactive = flat fitted curve, though single readings scatter.
Assay readout: outcome

*Q* Fill in the blank: the reported outcome of Cc1scc2c1N(C(=O)CN1CCN(C)CC1)c1ccccc1NC2=O is ____.
*A* inactive

*Q* Fill in the blank: the reported outcome of Cc1cc(C(C)(C)C)c(O)c(C(C)(C)C)c1 is ____.
*A* inactive

*Q* Fill in the blank: the reported outcome of CCN1CCCC1CNC(=O)c1cc(S(=O)(=O)CC)c(N)cc1OC (stereo not drawn) is ____.
*A* inactive

*Q* Fill in the blank: the reported outcome of CC(C)(C)NCC(O)c1cc(O)cc(O)c1 (stereo not drawn) is ____.
*A* inactive

Your task in this section: give outcome for each listed record.
1. Cc1occc(=O)c1OC(=O)C(C)C
2. CCCN[C@H]1CCc2nc(N)sc2C1

*A*
1: inactive; 2: inactive

###

Run description: Human pregnane X receptor (PXR) small molecule agonists, qHTS cell viability counter screen (AID 1346977); also: nearly all actives have a fitted effect of over 50% in size
Applied conditions: PXR-Luc HepG2 viability, CellTiter-Fluor, 24 h; series mostly up to 92.4 µM
Inconclusive results are not listed. Activity calls are given as the source filed them. Calls come from the whole dose curve; as a rule, active = well fitted cell-killing curve with a large enough effect in the repeat runs; inconclusive = weak or mixed curves, or effect the other way; inactive = flat fitted curve, though single readings scatter.
Pick one and only one: T (active), F (inactive)

*Q* # fetch the recorded call for CCOC(=O)C(C)C(C)=O (configuration not stated) here
*A* F

*Q* # fetch the recorded call for C#CC(C)(CC)OC(=O)c1ccccc1C(=O)O (configuration not stated) here
*A* F

*Q* # fetch the recorded call for CC(C)(c1ccccc1)c1ccc(Nc2ccc(C(C)(C)c3ccccc3)cc2)cc1 here
*A* F

*Q* # fetch the recorded call for Nc1nc(=S)c2[nH]cnc2[nH]1 here
*A* F

###

Target desc: Cytochrome P450 2C9 (Homo sapiens) (UniProt P11712)
Sequence (P11712 whole entry, looked up): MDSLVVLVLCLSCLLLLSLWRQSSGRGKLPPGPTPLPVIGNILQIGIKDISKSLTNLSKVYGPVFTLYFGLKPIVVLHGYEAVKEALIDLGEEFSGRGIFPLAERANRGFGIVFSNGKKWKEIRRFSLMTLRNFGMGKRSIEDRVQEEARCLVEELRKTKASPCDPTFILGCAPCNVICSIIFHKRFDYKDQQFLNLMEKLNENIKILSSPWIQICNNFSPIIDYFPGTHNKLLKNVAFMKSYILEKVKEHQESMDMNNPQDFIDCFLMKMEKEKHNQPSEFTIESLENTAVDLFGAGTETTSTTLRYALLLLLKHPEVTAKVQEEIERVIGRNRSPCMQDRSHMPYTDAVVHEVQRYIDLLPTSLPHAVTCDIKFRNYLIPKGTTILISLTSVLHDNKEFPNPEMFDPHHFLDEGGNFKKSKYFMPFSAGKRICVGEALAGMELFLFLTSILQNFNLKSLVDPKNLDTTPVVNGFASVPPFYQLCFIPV
Run description: Cytochrome P450 Family 2 Subfamily C Member 9 (CYP2C9) small molecule antagonists: luciferase reporter qHTS assay (AID 1671198); also: nearly all actives have a fitted effect of over 50% in size
Applied conditions: P450-Glo CYP2C9 enzyme assay, luciferin luminescence; series mostly up to 115 µM
Inconclusive results are not listed. Active and inactive are the calls of the source. The call rests on the fitted dose curve; in most records, active means well fitted inhibition curve with a large enough effect in the repeat runs; inconclusive means weak or mixed curves; inactive means no such curve, though single readings can be large or run the other way.
Pick one and only one: 1 (yes) (active), 0 (no) (inactive)

Some solved entries appear below for comparison.
*Q* # fetch the recorded call for Cc1cccc(O)c1C here
*A* 0 (no)

*Q* # fetch the recorded call for CCCNC(C)C(=O)Nc1ccccc1C (centres undefined) here
*A* 0 (no)

*Q* # fetch the recorded call for C=CC(=O)OCCCCCCCC here
*A* 0 (no)

*Q* # fetch the recorded call for OCCN1CCNCC1 here
*A* 0 (no)

*Q* # fetch the recorded call for [Cl][In]([Cl])[Cl] here
*A* 0 (no)

New cases:
*Q* # fetch the recorded call for CCC(C)(Oc1ccc(C2(c3ccc(OC(C)(CC)C(=O)O)cc3)CCCCC2)cc1)C(=O)O (centres undefined) here
*A* 0 (no)

*Q* # fetch the recorded call for CC(C)CCOCc1ccccc1 here
*A* 0 (no)

*Q* # fetch the recorded call for Cc1scc2c1N(C(=O)CN1CCN(C)CC1)c1ccccc1NC2=O here
*A* 0 (no)

*Q* # fetch the recorded call for Nc1cc(S(=O)(=O)O)cc2cc(S(=O)(=O)O)cc(O)c12 here
*A* 1 (yes)

*Q* # fetch the recorded call for CNC1(C)C2CCC(C2)C1(C)C (centres undefined) here
*A* 0 (no)

*Q* # fetch the recorded call for c1ccc2n[nH]nc2c1 here
*A* 0 (no)

*Q* # fetch the recorded call for O=C(O)CP(=O)(O)O here
*A* 0 (no)

*Q* # fetch the recorded call for NC(N)=Nc1nc(CSCC/C(N)=N/S(N)(=O)=O)cs1 here
*A* 0 (no)

*Q* # fetch the recorded call for Cc1occc(=O)c1OC(=O)C(C)C here
*A* 0 (no)

*Q* # fetch the recorded call for COC(=O)/C=C/c1ccccc1 here
*A* 0 (no)

*Q* # fetch the recorded call for BrC1CCC(Br)C(Br)CCC(Br)C(Br)CCC1Br (centres undefined) here
*A* 1 (yes)

*Q* # fetch the recorded call for O=C(O)c1cn(-c2ccc(F)cc2)c2cc(N3CCNCC3)c(F)cc2c1=O here
*A* 0 (no)

*Q* # fetch the recorded call for c1ccc2c(c1)-c1cccc3c1c-2cc1ccccc13 here
*A* 0 (no)

*Q* # fetch the recorded call for Cc1ccnc2c1NC(=O)c1cccnc1N2C1CC1 here
*A* 0 (no)

*Q* # fetch the recorded call for N[C@@H]1CONC1=O here
*A* 0 (no)

*Q* # fetch the recorded call for CC(=O)N[C@@H](CS)C(=O)O here
*A* 0 (no)
